# Test system: T1, CAPRIN-1 protein expressed on the membrane surface of human cancer cells (human, UniProt Q14444 2-709)
# T1 sequence (looked up): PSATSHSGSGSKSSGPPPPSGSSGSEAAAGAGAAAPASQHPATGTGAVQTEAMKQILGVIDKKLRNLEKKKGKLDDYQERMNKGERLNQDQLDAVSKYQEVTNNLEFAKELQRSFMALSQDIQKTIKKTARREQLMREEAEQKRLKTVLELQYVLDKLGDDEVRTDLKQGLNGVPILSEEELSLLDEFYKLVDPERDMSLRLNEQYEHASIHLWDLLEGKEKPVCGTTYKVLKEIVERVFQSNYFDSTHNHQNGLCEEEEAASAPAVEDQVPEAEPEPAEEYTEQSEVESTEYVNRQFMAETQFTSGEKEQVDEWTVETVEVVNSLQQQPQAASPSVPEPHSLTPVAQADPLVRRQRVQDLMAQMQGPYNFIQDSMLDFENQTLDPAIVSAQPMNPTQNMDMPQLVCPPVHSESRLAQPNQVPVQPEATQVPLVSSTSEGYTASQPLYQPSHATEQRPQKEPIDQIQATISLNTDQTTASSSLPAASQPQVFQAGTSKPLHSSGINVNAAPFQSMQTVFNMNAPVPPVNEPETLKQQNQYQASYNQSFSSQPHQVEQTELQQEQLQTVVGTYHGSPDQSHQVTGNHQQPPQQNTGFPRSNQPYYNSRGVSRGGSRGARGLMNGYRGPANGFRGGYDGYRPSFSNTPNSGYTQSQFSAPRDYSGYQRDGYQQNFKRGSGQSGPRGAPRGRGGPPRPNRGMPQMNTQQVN
# Run description: cell-based or functional assay
Observable: ADCC cytotoxic activity (51Cr release) on Ramos

These recorded examples may help you get a feel for the data.
- Binder: "humanized antibody #10 (antibody, V domains shown) VH: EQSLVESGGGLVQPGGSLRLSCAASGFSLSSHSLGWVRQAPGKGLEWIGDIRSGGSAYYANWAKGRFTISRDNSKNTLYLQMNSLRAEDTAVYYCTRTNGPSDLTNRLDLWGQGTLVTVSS VL: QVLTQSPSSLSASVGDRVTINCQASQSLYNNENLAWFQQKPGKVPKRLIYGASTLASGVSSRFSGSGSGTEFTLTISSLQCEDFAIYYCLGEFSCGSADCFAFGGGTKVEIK"
  Meas value: "≥ 20%"
- Binder: "humanized antibody #4 (antibody, V domains shown) VH: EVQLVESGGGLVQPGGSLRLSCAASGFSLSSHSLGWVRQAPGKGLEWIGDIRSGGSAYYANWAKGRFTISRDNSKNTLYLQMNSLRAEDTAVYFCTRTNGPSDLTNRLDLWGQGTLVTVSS VL: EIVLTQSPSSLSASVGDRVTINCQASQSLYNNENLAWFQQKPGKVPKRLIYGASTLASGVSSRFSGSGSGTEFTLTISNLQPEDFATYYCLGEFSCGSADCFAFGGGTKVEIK"
  Meas value: "≥ 18%"

# ---- query binder ----
**Q:** Fill in the blank: the reported ADCC cytotoxic activity (51Cr release) on Ramos of humanized antibody #8 (antibody, V domains shown) VH: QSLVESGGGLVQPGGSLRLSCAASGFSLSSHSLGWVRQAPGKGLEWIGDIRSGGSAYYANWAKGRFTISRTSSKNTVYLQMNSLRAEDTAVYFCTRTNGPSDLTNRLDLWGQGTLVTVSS VL: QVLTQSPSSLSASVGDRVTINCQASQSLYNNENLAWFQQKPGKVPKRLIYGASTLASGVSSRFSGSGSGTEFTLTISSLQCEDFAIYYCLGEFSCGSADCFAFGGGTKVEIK is ____.
**A:** ≥ 15%
